# tested system: human GM-CSF T117 (human, UniProt P04141 18-144)
# Sequence (P04141 18-144 I117T limits assumed): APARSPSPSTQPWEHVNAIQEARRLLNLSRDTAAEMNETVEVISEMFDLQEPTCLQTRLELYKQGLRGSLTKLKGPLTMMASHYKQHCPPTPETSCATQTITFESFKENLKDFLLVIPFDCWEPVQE
# method notes: cell-based or functional assay
measurement kind: IC50, inhibition of GM-CSF induced TF-1 proliferation (32 pM GM-CSF) (pM)
Give your result in pM as a bare value.

Worked examples follow.
[[record]]
binder = "MSB0010600 4K21 (4K21 hVH S55R-T62S hVL S27eY-N28I-H34S-N53R-H93Y) (antibody, V domains shown) VH: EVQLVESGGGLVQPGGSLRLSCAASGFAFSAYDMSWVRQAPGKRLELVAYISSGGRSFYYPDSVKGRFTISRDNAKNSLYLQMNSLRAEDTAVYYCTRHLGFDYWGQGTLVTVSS VL: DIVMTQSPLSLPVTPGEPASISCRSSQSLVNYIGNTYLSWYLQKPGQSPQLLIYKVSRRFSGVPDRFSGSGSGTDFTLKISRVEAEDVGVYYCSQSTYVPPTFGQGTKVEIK"
assay_value = 47

[[record]]
binder = "anti-GM-CSF 4K21 hIgG1K antibody (MSB0010259), recombinant chimeric 4K21 (antibody, V domains shown, Murine variable domains fused to human constant IgG1 heavy chain and kappa light chain domains) VH: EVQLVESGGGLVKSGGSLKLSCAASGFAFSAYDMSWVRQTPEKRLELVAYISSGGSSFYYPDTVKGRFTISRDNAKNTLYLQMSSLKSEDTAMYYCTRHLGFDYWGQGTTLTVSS VL: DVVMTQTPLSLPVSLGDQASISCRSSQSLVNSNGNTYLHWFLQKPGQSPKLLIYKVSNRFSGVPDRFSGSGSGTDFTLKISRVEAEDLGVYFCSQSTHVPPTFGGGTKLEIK"
assay_value = 1410

[[record]]
binder = "MSB0010599 4K21 (4K21 hVH S55R-T62S hVL N28I-H34S-N53R-H93Y) (antibody, V domains shown, IgG) VH: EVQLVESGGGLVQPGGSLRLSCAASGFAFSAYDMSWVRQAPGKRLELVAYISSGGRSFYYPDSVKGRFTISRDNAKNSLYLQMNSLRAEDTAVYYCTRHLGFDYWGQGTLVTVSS VL: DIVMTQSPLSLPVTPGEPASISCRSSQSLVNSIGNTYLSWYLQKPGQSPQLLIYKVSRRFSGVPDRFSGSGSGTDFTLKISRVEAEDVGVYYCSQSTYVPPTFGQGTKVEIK"
assay_value = 18

[[record]]
binder = "humanized parental anti-GM-CSF 4K21 VH3-07.1AL+VK2-A3.2 hIgG1K antibody (MSB0010439) (antibody, V domains shown, Human IgG1 kappa; also called humanized parental 4K21 hVH hVL; parental 4K21) VH: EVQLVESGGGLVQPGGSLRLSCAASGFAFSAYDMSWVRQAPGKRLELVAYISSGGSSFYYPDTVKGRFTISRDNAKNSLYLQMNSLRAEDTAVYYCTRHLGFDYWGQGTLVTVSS VL: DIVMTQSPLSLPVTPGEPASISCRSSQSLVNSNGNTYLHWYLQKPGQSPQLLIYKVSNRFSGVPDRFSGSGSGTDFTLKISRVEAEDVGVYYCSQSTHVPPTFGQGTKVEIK"
assay_value = 1400


Field request: IC50, inhibition of GM-CSF induced TF-1 proliferation (32 pM GM-CSF) | item: MSB0010602 4K21 (4K21 hVH S55K-T62S hVL S27eY-N28I-H34S-N53R-H93Y) (antibody, V domains shown, IgG) VH: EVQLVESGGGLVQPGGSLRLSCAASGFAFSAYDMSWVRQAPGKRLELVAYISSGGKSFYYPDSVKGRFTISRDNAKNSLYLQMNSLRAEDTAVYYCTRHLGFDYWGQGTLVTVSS VL: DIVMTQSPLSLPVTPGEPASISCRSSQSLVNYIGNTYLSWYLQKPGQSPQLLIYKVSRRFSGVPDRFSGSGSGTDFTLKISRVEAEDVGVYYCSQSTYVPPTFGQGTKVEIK 34

Value source: patent US20140065163A1
